systemUnderTest: HIV-1 pseudovirus 263-8 (HIV-1)
assayName: cell-based or functional assay
measurementType: IC50 (neutralization in TZM.bl cells)
In your response, put the unit directly after the numeric value.

Qu. Supply measured IC50 (neutralization in TZM.bl cells) of MS-85 (antibody, V domains shown) VH: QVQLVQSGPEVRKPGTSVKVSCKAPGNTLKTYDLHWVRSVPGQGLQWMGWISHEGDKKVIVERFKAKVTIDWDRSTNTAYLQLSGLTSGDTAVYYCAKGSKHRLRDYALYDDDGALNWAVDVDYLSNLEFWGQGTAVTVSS VL: DIVLTQSPHSLSVTPGESASISCKSSHSLIHGDRNNYLAWYVQKPGRSPQLLIYLASSRASGVPDRFSGSGSGTDFTLKISRVETEDVGTYYCMQGRESPWTFGQGTKVDIKR in your reply.
Ans. 11 ng/mL

Qu. Please give the documented IC50 (neutralization in TZM.bl cells) of MS-83 (antibody, V domains shown) VH: QVQLVQSGPEVRKPGTSVKVSCKAPGNTLKTYDLHWVRSVPGQGLQWMGWISHEGDKKVIVERFKAKVTIDWDRSTNTAYLQLSGLTSGDTAVYYCAKGSKHRLRDYALYDDEGALNWAVDVDYLSNLEFWGQGTAVTVSS VL: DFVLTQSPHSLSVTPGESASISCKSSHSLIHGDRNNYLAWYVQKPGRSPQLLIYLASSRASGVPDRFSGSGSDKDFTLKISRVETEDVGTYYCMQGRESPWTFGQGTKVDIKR
Ans. 7 ng/mL
